ASSAY_SUMMARY: Oral bioavailability in C57BL/6 mouse at 10 mg/kg
Type: ADME, organism-based
PARTICULARS: in vivo
PROPERTY_LABEL: bioavailability
The answer should read as a number with its unit following.

Task: Data request, read-out bioavailability, for "CC(C)[C@H](NS(=O)(=O)c1ccc2c(c1)oc1ccc(N3CCOC3=O)cc12)C(=O)O"
Result: 17%

###

ASSAYED_TARGET: UniProtKB Q63341
Sequence (Q63341 whole entry): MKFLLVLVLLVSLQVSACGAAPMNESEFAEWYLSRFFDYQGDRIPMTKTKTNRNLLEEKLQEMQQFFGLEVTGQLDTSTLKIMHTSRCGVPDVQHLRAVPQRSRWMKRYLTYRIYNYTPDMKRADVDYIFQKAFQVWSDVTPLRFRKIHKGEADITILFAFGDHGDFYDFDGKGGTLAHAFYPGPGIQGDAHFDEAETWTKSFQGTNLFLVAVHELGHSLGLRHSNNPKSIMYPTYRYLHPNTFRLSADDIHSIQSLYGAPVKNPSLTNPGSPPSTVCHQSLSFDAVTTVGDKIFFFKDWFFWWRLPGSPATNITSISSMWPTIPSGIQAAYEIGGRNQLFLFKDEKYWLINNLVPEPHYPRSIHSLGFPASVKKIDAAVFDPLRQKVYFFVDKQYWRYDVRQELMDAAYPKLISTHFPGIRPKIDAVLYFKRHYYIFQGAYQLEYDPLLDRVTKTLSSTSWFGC
PROPERTY_LABEL: IC50 (µM)
One number for each entry, in µM.

Task: Form field: reported IC50 of "CC(C)[C@H](NS(=O)(=O)c1ccc2c(c1)oc1ccc(N3CCOC3=O)cc12)C(=O)O"
Result: 0.072

Each recorded value in this set is attributed to ChEMBL document CHEMBL1152446.
